Target: recombinant human PD-L1 (Sino Biological Inc.) (human, UniProt Q9NZQ7 19-239)
Sequence (Q9NZQ7 19-239 limits assumed): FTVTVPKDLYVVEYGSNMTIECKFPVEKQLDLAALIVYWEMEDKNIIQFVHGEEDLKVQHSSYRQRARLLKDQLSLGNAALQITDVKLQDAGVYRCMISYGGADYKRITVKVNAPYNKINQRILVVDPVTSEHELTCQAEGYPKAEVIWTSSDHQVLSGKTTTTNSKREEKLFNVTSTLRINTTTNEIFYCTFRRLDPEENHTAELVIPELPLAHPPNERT
Experiment: SPR, Biacore X100
The entries below come with measured kon values attached.

Some solved cases for reference:
binder	kon
humanized anti-human PD-L1 monoclonal antibody VLS10-VHS7 P1 (antibody, human IgG1, kappa, V domains shown) VH: QVQLVQSGAEVKKPGSSVKVSCTASGFNIEDTYIHWVRQAPGQGLEWMGRIDPAQGNTKYDPKFQGRVTITADTSTNTAYMELSSLRSEDTAVYYCGRGLGAWFAYWGQGTLVTVSS VL: DIQMTQSPSSLSASVGDRVTITCKASQDVHTAVAWIHQKPGKAPKLLIYSASNRYTGVPSRFSGSGSGTDFTFTISSLQPEDIATYYCQQHYITPLTFGQGTKLEIKR	341000 M⁻¹ s⁻¹
humanized anti-human PD-L1 monoclonal antibody VLS10-VHS7 (antibody, human IgG1, kappa, V domains shown) VH: QVQLVQSGAEVKKPGSSVKVSCTASGFNIEDTYIHWVRQAPGQGLEWMGRIDPANGNTKYDPKFQGRVTITADTSTNTAYMELSSLRSEDTAVYYCGRGLGAWFAYWGQGTLVTVSS VL: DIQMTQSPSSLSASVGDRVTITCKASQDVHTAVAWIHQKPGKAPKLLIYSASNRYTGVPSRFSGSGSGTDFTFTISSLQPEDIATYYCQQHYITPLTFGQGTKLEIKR	341000 M⁻¹ s⁻¹

What does the data say about its kon? Entry: humanized anti-human PD-L1 monoclonal antibody VLS15-VHS12 P3 (antibody, human IgG1, kappa, V domains shown) VH: EVQLVQSGAEVKKPGSSVKVSCKASGFNIEDTYIHWVRQAPGQGLEWMGRIDPANANTKYDPKFQGRVTITADTSTNTAYMELSSLRSEDTAVYYCGRGLGAWFAYWGQGTLVTVSS VL: DIQMTQSPSSLSASVGDRVTITCKASQDVHTAVAWIQQKPGKSPKLLIYSASNRYTGVPSRFSGSGSGTDFTFTISSLQPEDIATYYCQQHYITPLTFGQGTKLEIKR
338000 M⁻¹ s⁻¹
